Reference for the values: paper PMC5339268

ASSAY_COMMENT: GAA metabolite identification in rat bile, plasma and urine after intravenous administration (HPLC-DAD-MS/MS)
CONDITION_SUMMARY: rat bile 0–4 h after i.v. GAA 20 mg/kg

{"COMPOUND": "CC(CC(=O)C[C@@H](C)[C@H]1CC(O[C@@H]2O[C@H](C(=O)O)[C@@H](O)[C@H](O)[C@H]2O)[C@@]2(C)C3=C(C(O)C[C@]12C)[C@@]1(C)CCC(=O)C(C)(C)[C@@H]1CC3=O)C(=O)O (stereo partly drawn) [Metabolite M31]", "Detected resource 1, rat bile": "+"}
{"COMPOUND": "CC(CC(=O)C[C@@H](C)[C@H]1CC(O)[C@@]2(C)C3=C(C(O[C@@H]4O[C@H](C(=O)O)[C@@H](O)[C@H](O)[C@H]4O)C[C@]12C)[C@@]1(C)CCC(=O)C(C)(C)[C@@H]1CC3=O)C(=O)O (stereo partly drawn) [Metabolite M29]", "Detected resource 1, rat bile": "+"}
{"COMPOUND": "C[C@H](CC(=O)C[C@@H](C)[C@H]1C[C@H](O)[C@@]2(C)C3=C(C(=O)C[C@]12C)[C@@]1(C)CCC(=O)C(C)(C)[C@@H]1C[C@@H]3O)C(=O)O [Metabolite M0, Ganoderic acid A]", "Detected resource 1, rat bile": "+"}
